molecular target: Amine oxidase [flavin-containing] B (Rattus norvegicus); experiment: Inhibition of recombinant rat MAO-B preincubated for 30 mins followed by addition of p-tyramine as substrate measured over 45 mins by Amplex Red MAO assay
Sequence (P19643 whole entry): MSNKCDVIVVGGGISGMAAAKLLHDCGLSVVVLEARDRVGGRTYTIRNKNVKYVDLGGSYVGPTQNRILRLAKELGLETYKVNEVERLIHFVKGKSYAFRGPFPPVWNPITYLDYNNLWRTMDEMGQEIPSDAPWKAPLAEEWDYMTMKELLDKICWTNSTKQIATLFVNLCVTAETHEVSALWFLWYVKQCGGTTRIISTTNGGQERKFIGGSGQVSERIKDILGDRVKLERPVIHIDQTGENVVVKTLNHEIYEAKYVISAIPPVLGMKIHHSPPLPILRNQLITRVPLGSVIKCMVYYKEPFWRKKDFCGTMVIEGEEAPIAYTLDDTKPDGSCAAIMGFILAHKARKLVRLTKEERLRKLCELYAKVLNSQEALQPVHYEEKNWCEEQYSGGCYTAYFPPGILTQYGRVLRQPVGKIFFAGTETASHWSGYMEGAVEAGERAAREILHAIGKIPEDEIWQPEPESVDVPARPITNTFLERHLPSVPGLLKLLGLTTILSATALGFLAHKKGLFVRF
test_readout: IC50 (nM)

(1) Cn1c(=O)c2c(nc3n2CCN(c2cccc(Cl)c2)C3)n(C)c1=O
(2) Cn1c(=O)c2c(nc3n2CCN([C@@H]2CCCc4ccccc42)C3)n(C)c1=O
Request: Compare 1 and 2 by numeric IC50 and name the larger one. # reply format: chosen label
Response: 1
(1: 251 nM, 2: 100 nM)

---

target: Adenosine receptor A1 (Rattus norvegicus) (UniProt P25099); assay: Displacement of [3H]CCPA from A1 receptor in rat brain cortex membranes at 1.5 uM by liquid scintillation counting method; type: cell membranes
Sequence (P25099 whole entry): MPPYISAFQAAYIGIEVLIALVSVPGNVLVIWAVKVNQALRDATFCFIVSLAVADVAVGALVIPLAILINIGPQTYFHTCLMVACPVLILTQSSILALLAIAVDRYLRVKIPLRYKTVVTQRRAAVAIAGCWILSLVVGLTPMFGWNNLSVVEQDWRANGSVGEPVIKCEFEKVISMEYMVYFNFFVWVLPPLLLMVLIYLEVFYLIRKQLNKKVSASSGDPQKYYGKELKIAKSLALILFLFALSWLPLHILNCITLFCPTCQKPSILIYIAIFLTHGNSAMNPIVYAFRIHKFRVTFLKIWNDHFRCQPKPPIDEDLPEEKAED
test_readout: Activity (%)

> print(dat)
                            chemical.string  test.readout  endpoint.result
1  Cn1c(=O)c2c(nc3n2CCN(C2CCN(Cc4ccccc4)CC2)C3)n(C)c1=O      Activity                7
2  Cn1c(=O)c2c(nc3n2CCN(CCc2cccc(Cl)c2)C3)n(C)c1=O      Activity               14
3  Cn1c(=O)c2c(nc3n2CCN(CC#Cc2cccc(Cl)c2)C3)n(C)c1=O      Activity               17

(I) Cn1c(=O)c2c(nc3n2CCN(c2ccc(Br)cc2)C3)n(C)c1=O
(II) Cn1c(=O)c2c(nc3n2CCN(CCOc2cccc(F)c2)C3)n(C)c1=O
Request: Quick check, higher Activity between I and II ? Select an item and report its label.
Response: I

Values compiled from ChEMBL document CHEMBL4428125.
